This collection of values is drawn from patent US20070082934A1.

- System: MCF7
- assay protocol: NCI anti-tumor screen, SRB assay, 48 hour exposure
- Assay type: cell-based, human
- assay conditions: MCF7 breast cancer cell line
value kind: GI50 (µM)
Numbers only, in µM.

Example results:
record_smiles=I.Nc1nc(-c2ccc(Sc3ccc(Cl)cc3)cc2)cs1 endpoint_value=21.6
record_smiles=I.Nc1nc(-c2ccc(Oc3cccc(Cl)c3)cc2)cs1 endpoint_value=14.6
record_smiles=I.Nc1nc(-c2ccc(Oc3ccccc3Cl)cc2)cs1 endpoint_value=27.4

Quick one: GI50 of I.Nc1nc(-c2ccc(Sc3ccc(Cl)c(Cl)c3)cc2)cs1 ?
5.68

----------
- Test system: T-47D
- assay protocol: NCI anti-tumor screen, SRB assay, 48 hour exposure
- Type: cell-based, human
- assay conditions: estrogen-positive cell line T-47D
value kind: GI50 (µM)
One number for each entry, in µM.

record_smiles=I.Nc1nc(-c2ccc(Oc3cccc(Cl)c3)cc2)cs1 unit_abbreviation=µM endpoint_value=14

For every record below, what is its GI50?
1. I.Nc1nc(-c2ccc(Sc3ccc(Cl)c(Cl)c3)cc2)cs1
2. I.Nc1nc(-c2ccc(Oc3ccccc3Cl)cc2)cs1
3. I.Nc1nc(-c2ccc(Sc3ccc(Cl)cc3)cc2)cs1

2.79
16.4
24.4
